Target: PRKCQ (human) (UniProt Q04759)
Sequence (Q04759 whole entry, looked up): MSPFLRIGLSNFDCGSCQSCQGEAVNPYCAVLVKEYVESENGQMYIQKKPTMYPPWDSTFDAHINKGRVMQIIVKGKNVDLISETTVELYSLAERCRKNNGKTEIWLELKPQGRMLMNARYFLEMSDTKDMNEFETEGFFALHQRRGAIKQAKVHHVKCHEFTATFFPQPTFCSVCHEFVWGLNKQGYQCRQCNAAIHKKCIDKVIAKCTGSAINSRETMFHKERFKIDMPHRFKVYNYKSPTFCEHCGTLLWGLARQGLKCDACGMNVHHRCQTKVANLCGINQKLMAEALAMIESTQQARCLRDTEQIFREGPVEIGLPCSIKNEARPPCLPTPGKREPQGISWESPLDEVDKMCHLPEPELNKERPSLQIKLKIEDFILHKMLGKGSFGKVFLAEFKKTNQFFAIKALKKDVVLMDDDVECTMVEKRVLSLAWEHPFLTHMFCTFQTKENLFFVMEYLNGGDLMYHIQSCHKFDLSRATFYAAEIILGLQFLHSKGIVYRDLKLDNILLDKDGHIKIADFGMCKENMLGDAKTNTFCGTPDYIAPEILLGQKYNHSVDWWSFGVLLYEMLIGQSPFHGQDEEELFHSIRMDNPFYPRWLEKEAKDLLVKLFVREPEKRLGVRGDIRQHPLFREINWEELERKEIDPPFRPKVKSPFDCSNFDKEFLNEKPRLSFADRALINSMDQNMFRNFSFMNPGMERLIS
Assay: split-luciferase competition binding
Conditions: compound 10.0 µM
RECORDED_ENDPOINT: inhibition (%)

COMPOUND: CC(C)(C)n1nc(-c2cccc3ccccc23)c2c(N)ncnc21
SYSTEM: PRKCQ (human) (UniProt Q04759)
UNIT_SYMBOL: %
READOUT_VALUE: 31
--
COMPOUND: COc1nccc(-c2c(-c3ccc(F)cc3)ncn2[C@H]2CC[C@H](O)CC2)n1
SYSTEM: PRKCQ (human) (UniProt Q04759)
UNIT_SYMBOL: %
READOUT_VALUE: 6
--
COMPOUND: COc1ccc(Cl)cc1NC(=O)Nc1cc(C)nc2ccccc12
SYSTEM: PRKCQ (human) (UniProt Q04759)
UNIT_SYMBOL: %
READOUT_VALUE: 0
--
COMPOUND: CS(=O)(=O)CCNCc1nc(-c2ccc3ncnc(Nc4ccc(OCc5cccc(F)c5)c(Cl)c4)c3c2)cs1
SYSTEM: PRKCQ (human) (UniProt Q04759)
UNIT_SYMBOL: %
READOUT_VALUE: 0
--
COMPOUND: Nc1ccc(-c2cccc3c(=O)cc(N4CCOCC4)oc23)cc1
SYSTEM: PRKCQ (human) (UniProt Q04759)
UNIT_SYMBOL: %
READOUT_VALUE: 0
--
COMPOUND: O=C1NC(=O)C(c2ccccc2[N+](=O)[O-])=C1Nc1ccc(O)c(Cl)c1
SYSTEM: PRKCQ (human) (UniProt Q04759)
UNIT_SYMBOL: %
READOUT_VALUE: 0
--
COMPOUND: Cn1cc(C2=C(c3ccc(Cl)cc3Cl)C(=O)NC2=O)c2ccccc21
SYSTEM: PRKCQ (human) (UniProt Q04759)
UNIT_SYMBOL: %
READOUT_VALUE: 3
--
COMPOUND: NC(=O)c1ccc(-c2nc(-c3ccccn3)c(-c3ccc4c(c3)OCO4)[nH]2)cc1
SYSTEM: PRKCQ (human) (UniProt Q04759)
UNIT_SYMBOL: %
READOUT_VALUE: 0
--
COMPOUND: O=S(=O)(NCCNC/C=C/c1ccc(Br)cc1)c1cccc2cnccc12
SYSTEM: PRKCQ (human) (UniProt Q04759)
UNIT_SYMBOL: %
READOUT_VALUE: 40
--
COMPOUND: N#C/C(=C\c1ccc(O)c(O)c1)C(=O)NCc1ccccc1
SYSTEM: PRKCQ (human) (UniProt Q04759)
UNIT_SYMBOL: %
READOUT_VALUE: 0
--
COMPOUND: NC(=O)c1sc(-c2ccsc2)cc1N
SYSTEM: PRKCQ (human) (UniProt Q04759)
UNIT_SYMBOL: %
READOUT_VALUE: 0
--
COMPOUND: CN1CC[C@H](c2c(O)cc(O)c3c(=O)cc(-c4ccccc4Cl)oc23)[C@H](O)C1
SYSTEM: PRKCQ (human) (UniProt Q04759)
UNIT_SYMBOL: %
READOUT_VALUE: 35
--
COMPOUND: CC(C)(C)n1nc(-c2ccc(Cl)cc2)c2c(N)ncnc21
SYSTEM: PRKCQ (human) (UniProt Q04759)
UNIT_SYMBOL: %
READOUT_VALUE: 0
--
COMPOUND: O=C(Nc1cc(C(F)(F)F)cc(C(F)(F)F)c1)c1cc(Cl)ccc1O
SYSTEM: PRKCQ (human) (UniProt Q04759)
UNIT_SYMBOL: %
READOUT_VALUE: 2
--
COMPOUND: O=C1NC(=O)c2c1c1c3ccccc3[nH]c1c1[nH]c3ccccc3c21
SYSTEM: PRKCQ (human) (UniProt Q04759)
UNIT_SYMBOL: %
READOUT_VALUE: 45
--
COMPOUND: N#C/C(=C(/N)Sc1ccc(N)cc1)c1ccccc1C(F)(F)F
SYSTEM: PRKCQ (human) (UniProt Q04759)
UNIT_SYMBOL: %
READOUT_VALUE: 0
--
COMPOUND: c1ccc(-c2n[nH]cc2-c2ccnc3ccccc23)nc1
SYSTEM: PRKCQ (human) (UniProt Q04759)
UNIT_SYMBOL: %
READOUT_VALUE: 1
--
COMPOUND: NC(=O)Nc1sc(-c2ccc(F)cc2)cc1C(N)=O
SYSTEM: PRKCQ (human) (UniProt Q04759)
UNIT_SYMBOL: %
READOUT_VALUE: 18
--
COMPOUND: CCN(CC)CCNC(=O)c1c(C)[nH]c(/C=C2\C(=O)Nc3ccc(F)cc32)c1C
SYSTEM: PRKCQ (human) (UniProt Q04759)
UNIT_SYMBOL: %
READOUT_VALUE: 7
--
COMPOUND: CC1=C(O)C(=O)[C@@H]2OC2C1=O (stereo partly specified)
SYSTEM: PRKCQ (human) (UniProt Q04759)
UNIT_SYMBOL: %
READOUT_VALUE: 0
--
COMPOUND: O=c1cc(N2CCOCC2)oc2c1ccc1ccccc12
SYSTEM: PRKCQ (human) (UniProt Q04759)
UNIT_SYMBOL: %
READOUT_VALUE: 0
--
COMPOUND: O=C(c1ccc(Nc2nccc(-c3cc4ccccc4s3)n2)cc1)N1CCC(N2CCCC2)CC1
SYSTEM: PRKCQ (human) (UniProt Q04759)
UNIT_SYMBOL: %
READOUT_VALUE: 38
--
COMPOUND: Cc1cc2nc3c(=O)[nH]c(=O)nc-3n(C)c2cc1C=O
SYSTEM: PRKCQ (human) (UniProt Q04759)
UNIT_SYMBOL: %
READOUT_VALUE: 5
--
COMPOUND: COc1cc2nccc(Oc3ccc(NC(=O)Nc4ccc(F)cc4F)c(F)c3)c2cc1OC
SYSTEM: PRKCQ (human) (UniProt Q04759)
UNIT_SYMBOL: %
READOUT_VALUE: 20
--
COMPOUND: CC[C@@H](CO)Nc1nc(NCc2ccccc2)c2ncn(C(C)C)c2n1
SYSTEM: PRKCQ (human) (UniProt Q04759)
UNIT_SYMBOL: %
READOUT_VALUE: 0
--
COMPOUND: Nc1ncnc2[nH]nc(Nc3ccc(F)cc3)c12
SYSTEM: PRKCQ (human) (UniProt Q04759)
UNIT_SYMBOL: %
READOUT_VALUE: 17
--
COMPOUND: COc1cc(CC2C(=O)OC[C@@H]2Cc2ccc(OC)c(OC)c2)ccc1O (stereo partly specified)
SYSTEM: PRKCQ (human) (UniProt Q04759)
UNIT_SYMBOL: %
READOUT_VALUE: 0
--
COMPOUND: O=C1c2ccccc2-c2n[nH]c3cccc1c23
SYSTEM: PRKCQ (human) (UniProt Q04759)
UNIT_SYMBOL: %
READOUT_VALUE: 0
--
COMPOUND: Cc1cc(F)c(Nc2ncnc3cc(OCc4ccccc4)ccc23)cc1O
SYSTEM: PRKCQ (human) (UniProt Q04759)
UNIT_SYMBOL: %
READOUT_VALUE: 0
--
COMPOUND: N#CC(=C(\N)Sc1ccccc1N)/C(C#N)=C(/N)Sc1ccccc1N
SYSTEM: PRKCQ (human) (UniProt Q04759)
UNIT_SYMBOL: %
READOUT_VALUE: 0
--
COMPOUND: C/C(O)=C(\C#N)C(=O)Nc1cc(Br)ccc1Br
SYSTEM: PRKCQ (human) (UniProt Q04759)
UNIT_SYMBOL: %
READOUT_VALUE: 0
--
COMPOUND: O=C(NC(NC(=S)Nc1ccc(F)c([N+](=O)[O-])c1)C(Cl)(Cl)Cl)C(c1ccccc1)c1ccccc1 (stereo unspecified)
SYSTEM: PRKCQ (human) (UniProt Q04759)
UNIT_SYMBOL: %
READOUT_VALUE: 0
--
COMPOUND: Cn1cnc2c(NCc3ccccc3)nc(NCCO)nc21
SYSTEM: PRKCQ (human) (UniProt Q04759)
UNIT_SYMBOL: %
READOUT_VALUE: 0
--
COMPOUND: Cn1cc(C2=C(c3cn(CCCSC(=N)N)c4ccccc34)C(=O)NC2=O)c2ccccc21
SYSTEM: PRKCQ (human) (UniProt Q04759)
UNIT_SYMBOL: %
READOUT_VALUE: 93
--
COMPOUND: CC(C)N(CCC(=O)c1ccc2ccccc2c1)Cc1ccccc1
SYSTEM: PRKCQ (human) (UniProt Q04759)
UNIT_SYMBOL: %
READOUT_VALUE: 0
--
COMPOUND: Cc1ccc(NC(=O)c2cccc(N(C)C)c2)cc1NC(=O)c1ccc(O)cc1
SYSTEM: PRKCQ (human) (UniProt Q04759)
UNIT_SYMBOL: %
READOUT_VALUE: 0
--
COMPOUND: CCN(CC)CCCCN1c2ccccc2Oc2ccc(Cl)cc21
SYSTEM: PRKCQ (human) (UniProt Q04759)
UNIT_SYMBOL: %
READOUT_VALUE: 4
--
COMPOUND: CC(C)[C@H](CO)Nc1nc(Nc2ccc(C(=O)O)c(Cl)c2)c2ncn(C(C)C)c2n1
SYSTEM: PRKCQ (human) (UniProt Q04759)
UNIT_SYMBOL: %
READOUT_VALUE: 11
--
COMPOUND: Cc1[nH]c(/C=C2\C(=O)Nc3ccc(S(=O)(=O)Cc4c(Cl)cccc4Cl)cc32)c(C)c1C(=O)N1CCC[C@@H]1CN1CCCC1
SYSTEM: PRKCQ (human) (UniProt Q04759)
UNIT_SYMBOL: %
READOUT_VALUE: 0
--
COMPOUND: COc1cc2ncnc(Nc3ccc(F)c(Cl)c3)c2cc1OCCCN1CCOCC1
SYSTEM: PRKCQ (human) (UniProt Q04759)
UNIT_SYMBOL: %
READOUT_VALUE: 2
--
COMPOUND: CO[C@@H]1[C@H](N(C)C(=O)c2ccccc2)C[C@H]2O[C@]1(C)n1c3ccccc3c3c4c(c5c6ccccc6n2c5c31)C(=O)NC4
SYSTEM: PRKCQ (human) (UniProt Q04759)
UNIT_SYMBOL: %
READOUT_VALUE: 55
